target: WT Spike (SARS-CoV-2, UniProt P0DTC2 16-1213)
pKd: −log10 of the molar value.
Quantity: pKd

Binder	Quantity	Experimental Value
Ab_14 (scFv, V domains shown) VH: QVQLQQSGPGLVKPSQTLSLTCAISGDSVSSNSAAWNWIRQSPARGLEWLGRTYYRSRWYNDYAISMKSRITINPDTSKNQFSLQLESVTPEDTAVYYCAREIRGFDYWGQGTLVTVSS VL: QSVLTQPPSASGSPGQSVTISCTGTSSDVGAYNFVSWYQHHPGKAPKLIIYDFNKRPSGVPDRFSGSKSGNTASLTVSGLQADDEADYYCSSYAGSNNFDVVFGGGTKLTVL	pKd	11.09
RBD-R3-E1-G7 (Ab2-10) (scFv, V domains shown) VH: EVQLVESGPGLVKPSETLSLTCTVSGGSISSYYWSWIRQPAGKGLEWIGRIYTSGSTNYNPSLKSRVTMSVDTSKNQFSLKLSSVTAADTAVYYCARDVGFGWFDRWGQGTLVTVSS VL: NFMLTQPHSVSESPGKTVTISCTRSSGSIASNYVQWYQQRPGSSPTTVIYEDNQRPSGVPDRFSGSIDSSSNSASLTISGLTTEDEADYYCQSFDSASLWVFGGGTKLTVL	pKd	11.25
Ab 21 (scFv, V domains shown) VH: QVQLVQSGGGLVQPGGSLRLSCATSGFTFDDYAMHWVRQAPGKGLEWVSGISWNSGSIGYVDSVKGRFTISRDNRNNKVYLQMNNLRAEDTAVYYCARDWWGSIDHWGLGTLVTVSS VL: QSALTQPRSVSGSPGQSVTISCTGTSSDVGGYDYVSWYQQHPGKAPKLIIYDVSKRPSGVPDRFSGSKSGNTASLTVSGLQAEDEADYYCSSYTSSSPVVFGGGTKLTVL	pKd	11.03
Ab_17 (scFv, V domains shown) VH: QVQLVQSGGGVVQPGRSLRLSCAASGFTFDDYAMHWVRQVPGKGLEWVSGIDWNSGVIGYADSVKGRFTISRDNVKNSLYLQMNSLRTEDSALYYCAKDIGPGGSGSYYAFDIWGQGTTVTVSS VL: QSALTQPASVSGSPGQSITISCTGTSSDVGGSKYVSWYQQHPGKAPKVMIYDVTKRPSGVPDRFSGSKSGNTASLTISGLQAEDEADYYCAAWDDSLNGVVFGGGTKLTVL	pKd	11.20
S1-R3-T1-C4 (Ab_8) (scFv, V domains shown) VH: QVQLVQSGAEVKKPGSSVKVSCKASGGTFSSYAISWLRQAPGQGLEWMGWINPNSGGTNYAQKFQGRVTMTRDTSISTAYMELSRLRSDDTAVYYCARGSGGYYLGWGQGTLVTVSS VL: QPGLTQPPSVSKGLRQTATLTCTGNSNNVGNQGAAWLQQHQGHPPKLLSYMNNNRPPGISERFSASRSGNTASLTITGLQPEDEADYYCSAWDSSLSRWVFGGGTKLSVL	pKd	11.15
S1-RBD-R3-T1-F5 (Ab2-7) (scFv, V domains shown) VH: QVTLKESGPTRVKPTQTLTLTCTFSGFSLSTTGVGVGWIRQPPGKALEWLALIYWNDDKRYSPSLKSRLTITKDTSKNQVVLTMTNMDPVDTATYYCARISGSGYFYPFDIWGQGTTVTVSS VL: NFMLTQPHSVSESPGKTVTISCTRSSGSIASNYVQWYQQRPGSSPTTVIYEDNQRPSGVPDRFSGSIDSSSNSASLTISGLKAEDEADYYCQSYDSSSLWVFGGGTKLTVL	pKd	11.11

All values here come from patent US20230374114A1.
